Origin of measurements: patent US20220193132A1

- assaySystem: T1, recombinant human EGFRvIII protein (extracellular domain), denatured (human, UniProt P00533 298-623)
- T1 construct: Same protein as m21 after 95 C for 5 min in PBS with 40 mM DTT (denatured, reduced); also called EGFRvIII Denatured
- assayComment: ELISA Exp 2, purified mAb 1 ug/ml;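 further: ELISA of purified mAb binding to plate-coated antigen, native or heat/DTT-denatured, with pNPP substrate developed for 30 min and incubations at room temperature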
Give measured ELISA absorbance 405 nm for each item. Keep answers brief.
Please state the figure in A405; there is no need to write the unit.

I would be grateful if you could share the reported ELISA absorbance 405 nm for F263-5D8 (antibody, V domains shown, Mouse hybridoma mAb) VH: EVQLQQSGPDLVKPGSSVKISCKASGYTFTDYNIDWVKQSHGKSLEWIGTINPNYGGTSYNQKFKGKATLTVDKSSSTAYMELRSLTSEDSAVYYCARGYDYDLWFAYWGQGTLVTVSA VL: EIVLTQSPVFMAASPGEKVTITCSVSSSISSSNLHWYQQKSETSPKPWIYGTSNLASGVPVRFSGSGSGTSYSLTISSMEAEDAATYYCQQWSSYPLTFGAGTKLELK .
0.848

Tell me the measured ELISA absorbance 405 nm of F266-11C8 (antibody, V domains shown, Mouse hybridoma mAb; also called 11H5 (11C8)) VH: QIQLVQSGPELKKPGETVKISCKASGYTFTTAGMQWVQKMPGKGFKWIGWINTHSGDPKYAEDFKGRFAFSLETYASTAYLQISNLKNEDTASYFCARTHIYDGYNYAMDYWGQGTSVTVSS VL: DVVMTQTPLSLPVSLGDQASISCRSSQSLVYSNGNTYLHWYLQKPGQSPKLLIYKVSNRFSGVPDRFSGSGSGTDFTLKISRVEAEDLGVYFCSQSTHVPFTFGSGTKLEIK , please.
1.71

Param item = F266-11H3 (antibody, V domains shown, Mouse hybridoma mAb) VH: QIQLVQSGPELKKPGETVKISCKASGYTFTTAGMQWVQKMPGKGFKWIGWINTHSGDPKYAEDFKGRFAFSLETYASTAYLQISNLKNEDTATYFCARTHIYDGYNYAMDYWGQGTSVTVSS VL: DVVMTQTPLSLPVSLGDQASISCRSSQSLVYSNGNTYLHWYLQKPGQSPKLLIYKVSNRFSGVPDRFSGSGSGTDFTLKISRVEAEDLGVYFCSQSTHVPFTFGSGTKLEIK ; retrieve measured ELISA absorbance 405 nm.
1.79

Value lookup for ELISA absorbance 405 nm; key = F265-9C9 (antibody, V domains shown, Mouse hybridoma mAb) VH: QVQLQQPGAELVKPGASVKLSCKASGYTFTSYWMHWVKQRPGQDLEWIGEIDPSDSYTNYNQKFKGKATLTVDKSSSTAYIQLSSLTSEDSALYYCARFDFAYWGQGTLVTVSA VL: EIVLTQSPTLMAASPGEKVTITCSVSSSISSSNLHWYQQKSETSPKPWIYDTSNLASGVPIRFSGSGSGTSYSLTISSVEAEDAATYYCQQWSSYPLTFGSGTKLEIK
0.503

Any idea what its ELISA absorbance 405 nm is? The binder is F266-11B1 (antibody, V domains shown, Mouse hybridoma mAb) VH: QIQLVQSGPELKKPGETVKISCKASGYTFTTAGMQWVKKMPGKGFKWIGWINTHSGDPKYAEDFKGRFAFSLETYASTAYLQISNLKNEDTASYFCARTHIYDGYNYAMDYWGQGTSVTVSS VL: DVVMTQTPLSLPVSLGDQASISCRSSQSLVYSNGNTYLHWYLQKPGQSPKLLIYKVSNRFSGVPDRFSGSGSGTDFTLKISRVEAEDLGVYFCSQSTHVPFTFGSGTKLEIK
1.77

Look at this binder and give its reported ELISA absorbance 405 nm. F263-4E11 (antibody, V domains shown, Mouse hybridoma mAb) VH: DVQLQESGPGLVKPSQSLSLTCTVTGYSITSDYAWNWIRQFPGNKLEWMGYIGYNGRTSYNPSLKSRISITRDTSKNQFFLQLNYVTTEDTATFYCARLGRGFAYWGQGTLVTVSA VL: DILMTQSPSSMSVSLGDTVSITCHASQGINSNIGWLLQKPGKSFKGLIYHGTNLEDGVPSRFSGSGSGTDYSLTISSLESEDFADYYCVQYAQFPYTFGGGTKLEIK
0.997

Find the recorded ELISA absorbance 405 nm belonging to F263-4B3 (antibody, V domains shown, Mouse hybridoma mAb) VH: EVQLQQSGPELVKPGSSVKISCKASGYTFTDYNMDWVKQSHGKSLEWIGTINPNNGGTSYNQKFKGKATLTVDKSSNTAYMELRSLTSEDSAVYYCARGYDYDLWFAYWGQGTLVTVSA VL: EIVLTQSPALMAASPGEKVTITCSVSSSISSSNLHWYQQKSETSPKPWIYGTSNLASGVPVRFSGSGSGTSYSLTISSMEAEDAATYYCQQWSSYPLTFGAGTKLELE and report it.
0.603
